Test system: M19-MEL
experiment-notes: NCI tumour cell line growth inhibition, 48 h
Active and inactive are the calls of the source. Cut-off read from the data, not from the text of the source: active = GI50 up to about 1.1 µM and inactive = higher.
metric: GI50

The examples below pair each entry with its known result.
> print(dat)
                                   molecule  reported.measurement
1  O=C1C(c2ccccc2)=C(c2ccccc2)C(c2ccccc2)/C1=C1\C(=O)C(c2ccccc2)=C(c2ccccc2)C1c1ccccc1 (stereo unspecified)   > 100 µM (inactive)
2  O=c1[nH]c(=O)n(C2CC(O)C(CO)O2)cc1C#Cc1c(F)c(F)c(F)c(F)c1F (stereo unspecified)   > 100 µM (inactive)
3          CCCCCCCCCC(=O)CC(=O)c1c(O)cccc1O    38.5 µM (inactive)
4                      CNC(=S)/N=C(\N)N(C)C   > 100 µM (inactive)
5               CCOC(=N)CC(=O)Nc1cccc(C)c1C   > 100 µM (inactive)

Requested field: GI50. Item: Cc1ccc(C)c(N2C(=O)C(=O)C(c3nc4ccccc4s3)/C(=N/N)C2=O)c1 (stereo unspecified) > 20.2 µM (inactive)

Entry "CC1=NCCc2cc3[nH]c4ccccc4c3cc21" : reported GI50 = ? 14.9 µM (inactive)

Could you tell me which GI50 is on file for "CN(C)C=C1C(Cl)=C(C=O)CC(C=O)=C1Cl" ? 11.4 µM (inactive)

###

Test system: OVCAR-5
experiment-notes: NCI tumour cell line growth inhibition, 48 h
Active and inactive are the calls of the source. Rule as the data show it: active = GI50 up to about 1.1 µM and inactive = higher.
metric: GI50

Some molecules with known GI50 results, for comparison:
> print(dat)
                                   molecule  test.system  reported.measurement
1  C[C@H]1[C@H](C)N(Cc2ccccc2)P(=O)(C(O)/C=C/c2ccccc2)N1Cc1ccccc1 (stereo not given in full)      OVCAR-5    6.61 µM (inactive)
2  Cc1c(OCCCOc2ccc3c(=O)cc(-c4ccccc4)oc3c2C)ccc2c(=O)cc(-c3ccccc3)oc12      OVCAR-5   > 100 µM (inactive)
3                         Sc1ncc2[nH]nnc2n1      OVCAR-5   > 100 µM (inactive)
4  COc1ccc(C2COc3cc(OC(C)=O)c(OC(C)=O)cc3C2)cc1 (stereo not given)      OVCAR-5    27.1 µM (inactive)

Need GI50, item "CN(C)C(=S)/N=c1\ss/c(=N\C(=S)N(C)C)n1-c1cccc(Cl)c1" > 100 µM (inactive)

###

Tested on: SF-539
experiment-notes: NCI tumour cell line growth inhibition, 48 h
Structures can show the parent of a compound that is named as a salt. The source made the active and inactive calls. No stated cut-off is given here; in the data, active = GI50 up to about 1.1 µM and inactive = higher.
Allowed answers: active, inactive

Use these answered entries as a reference point.
compound	assigned-label
CC(C)C[C@H]1C(=O)N2CCC[C@H]2[C@]2(O)O[C@](NC(=O)[C@@H]3C=C4c5cccc6[nH]c(Br)c(c56)C[C@H]4N(C)C3)(C(C)C)C(=O)N12 [BROMOCRIPTINE MESYLATE]	inactive
CN(C)C=C1C(Cl)=C(C=O)CC(C=O)=C1Cl	inactive
NCCSCCc1ccccc1	inactive
CCCCCC/C=C1\CCC(CN(C)C)C1=O (centres undefined)	inactive
CC(C)=CCc1cc(C2COc3cc4c(c(O)c3C2=O)C=CC(C)(C)O4)c(O)cc1O (centres undefined)	inactive

Returns: the outcome recorded for "O=c1cc(-c2ccccc2)nc(-n2[nH]c3c(c2=O)CCCC3)[nH]1" in this assay. inactive

// param item: CCCCCC(/C=N/NC(N)=S)C(O)(C(F)(F)F)C(F)(F)F (centres undefined) ; yields the recorded call inactive

For this compound, state the assay outcome: O=c1[nH]c(=O)n(C2CC(O)C(CO)O2)cc1C#Cc1c(F)c(F)c(F)c(F)c1F (centres undefined) inactive

###

Tested on: DLD-1
experiment-notes: NCI tumour cell line growth inhibition, 48 h
Calls of active or inactive are those of the source. Cut-off read from the data, not from the text of the source: active = GI50 up to about 1.1 µM and inactive = higher.
Hi there, use one of these labels in your reply, thanks! active, inactive

See these solved cases before continuing.
molecule	assigned-label
CCOC(=O)CN(CC)C(=O)NC12CC3CC(CC(C3)C1)C2	inactive
O=C1C2=C(C3=NCCc4c[nH]c1c43)c1c(cc(Br)c(O)c1Br)CCN2	inactive
O=C1Nc2cccc3ncn(c23)C2=C1CCCC2	inactive
C[C@]12CCC(=O)C(O)=C1CCC2=O	inactive

Would you mind telling me which call this test gave O=c1[nH]c(=O)n(C2OC(CO)C(O)C(O)C2O)cc1F (stereo unspecified) ? inactive

Write down the call the test reported for this molecule. Item: "CC(C)c1ccc(/C=C/c2cc(C(=O)NNC(=O)NC3CCCCC3)nc(S)n2)cc1" inactive

Outcome logged for OCC(O)C(O)c1nn(-c2ccccc2)c2nc3cc(Cl)c(Cl)cc3nc12 (stereo unspecified) in this assay: inactive

Outcome logged for O/N=C1\C(=C\c2ccc3c(c2)OCCO3)CCCC1C(NO)c1ccc2c(c1)OCCO2 (stereo unspecified) in this assay: inactive

###

Tested on: NCI-H522
experiment-notes: NCI tumour cell line growth inhibition, 48 h
Calls of active or inactive are those of the source. Rule as the data show it: active = GI50 up to about 1.1 µM and inactive = higher.
The categories you may choose from are active, inactive

compound	test-system	assigned-label
O=C(Nc1ccc(Cl)cc1)C(=O)C1=C(O)c2ccccc2OC1	NCI-H522	inactive

State the result this test recorded for Cc1ccc(C(=O)N2c3ccccc3N(C)n3cccc3C2CC(=O)O)cc1 (centres undefined) . inactive

Write down the call the test reported for this compound. Item: "O=C(/C=C/c1ccccc1)CCC1C(=O)NC(=O)NC1=O" inactive

Just curious, what result did COC(=O)C1=C(C(=O)OC)C(OO)(c2ccccc2)OC1=O (centres undefined) get here? inactive

Called result for "CCOC(=N)CC(=O)Nc1cccc(C)c1C" inactive

Which outcome was assigned to "C[C@H]1O[C@@H](O[C@H]2[C@@H](O)C[C@H](O[C@H]3[C@@H](O)C[C@H](O[C@H]4CC[C@@]5(C)[C@H](CC[C@@H]6[C@@H]5CC[C@]5(C)[C@@H](C7=CC(=O)OC7)CC[C@]65O)C4)O[C@@H]3C)O[C@@H]2C)C[C@H](O)[C@@H]1O" in this test? active

Outcome? "Nc1nc(N)c2cc(S(=O)(=O)c3ccc4ccccc4c3)ccc2n1" inactive

Please let me know the test result on file for COc1ccc(C(O)c2cc(OC)c(OC)c(OC)c2)cc1 (centres undefined) . inactive

Entry "O=C1c2c(Br)sc(Br)c2[C@@H](O)[C@H]1O" : call = ? inactive

Could you check what this test reported for "Cn1c(-c2cccs2)cc(-c2ccccc2)c1-c1cccs1" ? inactive

# outcome recorded in this test, key = "COc1ccc(/N=N/C(C(=O)c2ccccc2)C(=O)c2ccccc2)cc1" inactive

Assay outcome for OCC1CC2CC1C1(C2)OCCO1 (centres undefined) : what was it? inactive

Returns: the outcome recorded for "CCc1n[nH]c(=O)n1NC(=O)c1ccccc1C(=O)O" in this assay. inactive

Please state the recorded outcome for this compound: "COc1cc(C(=O)c2cocc2C(=O)c2ccc3c(c2)OCO3)cc(OC)c1OC" active

Test call, this compound: CC1=Nc2c(O)nc(S)nc2NC(c2ccc(Cl)c(Cl)c2)C1 (centres undefined) inactive

Could you check what this test reported for "O=C1Nc2cccc3ncn(c23)C2=C1CCCC2" ? inactive

###

Quick reference: GI50 of the listed items.
Tested on: HT-29
experiment-notes: NCI tumour cell line growth inhibition, 48 h
Calls of active or inactive are those of the source. Cut-off read from the data, not from the text of the source: active = GI50 up to about 1.1 µM and inactive = higher.

Entry "Cc1ccccc1C(=O)N1CCc2c([nH]c3ccccc23)C1" has what GI50? 18.8 µM (inactive)

Which measured GI50 value corresponds to O=C1CSC(c2ccc(Cl)cc2)N1c1ccc(-c2ccc(-n3c(-c4ccccc4)nc4ccccc4c3=O)cc2)cc1 (stereo not given) ? 15.2 µM (inactive)

Query: GI50; subject: "CCN(CC)c1ccc(/N=N/c2ccc(-c3nc4cccnc4o3)cc2)cc1" > 100 µM (inactive)

Using the record for "Cc1ccc(S(=O)(=O)N2CCN(CCN(C)CCN3CCN(S(=O)(=O)c4ccc(C)cc4)CC3)CC2)cc1" , report its GI50. 14.5 µM (inactive)

Entry COc1c2c(cc3c1C1(O)Cc4ccc5c(c4C[N+]1(C)CC3)OCO5)OCO2 (stereo not given) has what GI50? 33.9 µM (inactive)

###

Collected GI50 values appear next to each entry.
Tested on: T47D
experiment-notes: NCI tumour cell line growth inhibition, 48 h
Active and inactive are the calls of the source. Rule as the data show it: active = GI50 up to about 1.1 µM and inactive = higher.

Example entries and their recorded answers appear below.
molecule	GI50
COc1ccc2cc1Oc1ccc(cc1)CC1c3cc(OC)c(cc3CCN1C)Oc1c(OC)c(OC)cc3c1C(C2)N(C)CC3 (centres undefined)	9.93 µM (inactive)
Cc1ccc2c(c1)C(=S)N1CSCC1c1nncn1-2 (centres undefined)	> 100 µM (inactive)
NC(=O)C(=CNC(=S)Nc1cccc(C(F)(F)F)c1)C(N)=O	> 100 µM (inactive)
COC(=O)/C(=N\Nc1nnc(C)n1N)C(C#N)c1ccccc1 (centres undefined)	> 100 µM (inactive)

Quick one: GI50 of "CO[P@@]1(=O)O[C@@H](c2ccccc2)[C@H](O)[C@@]1(O)c1ccccc1" ? > 100 µM (inactive)

Returns the measured GI50 for the input molecule. Input: "[O-][n+]1ccc(NO)c2ccccc21" 1.67 µM (inactive)

So what does the record say about GI50 for "O=C(/C=C/c1ccccc1)CCC1C(=O)NC(=O)NC1=O" ? > 100 µM (inactive)

What value of GI50 has been recorded for this entry: CC1OC(OC2C(OC(=O)[C@]34CCC(C)(C)C[C@H]3C3=CC[C@@H]5[C@@]6(C)CC[C@H](OC7OC(C(=O)O)C(O)C(O)C7O)C(C)(C)[C@@H]6CC[C@@]5(C)[C@]3(C)C[C@H]4O)OCC(O)C2O)C(O)C(O)C1OC1OCC(OC2OCC(O)C(O)C2O)C(O)C1O (some centres undefined) 7.16 µM (inactive)

Which GI50 is listed for "O=C(O)c1ccc2c(c1)Cc1cc([N+](=O)[O-])ccc1-2" ? > 100 µM (inactive)

What value of GI50 has been recorded for this entry: "CCn1c2ccc(C(=O)CCCN(C)C)cc2c2cc(C(=O)CCCN(C)C)ccc21" 10.2 µM (inactive)

Could you tell me which GI50 is on file for "COc1cc(OC)c2c3c(OC)cc(OC)c4c(=O)c(O)c(C[C@@H](C)O)c(c5c(C[C@@H](C)O)c(O)c(=O)c1c25)c43" ? 16.6 µM (inactive)
